- EXPERIMENT_NOTES: Lipophilicity, log D of the compound at pH 7.4 by RP-HPLC analysis
- Assay type: physicochemical
- ASSAY_CONTEXT: buffer
RECORDED_METRIC: logD

// below: answered compounds
Cc1ccc([C@@H](C)Oc2cc3onc(CCC(=O)O)c3cc2Cl)nc1.NC(CO)(CO)CO :: 2.42
C[C@@H](Oc1cc2oc(=O)n(CCC(=O)O)c2cc1Cl)c1ccc(F)cn1.NC(CO)(CO)CO :: 1.98
COCCOc1cc2oc(=O)n(CCC(=O)O)c2cc1Cl.NC(CO)(CO)CO :: 0.88

A. C[C@@H](Oc1cc2oc(=O)n(CCC(=O)O)c2cc1Cl)c1cccnn1
B. CC(Oc1cc2oc(=O)n(CCC(=O)O)c2cc1Cl)c1ccccn1.NC(CO)(CO)CO (stereo not given)
Asked: Kindly identify which of A and B has the larger recorded logD value. State the label of the item chosen.
Given back: B

----------
- ASSAY_TARGET: serum albumin (Homo sapiens, UniProt P02768)
- Sequence (P02768 whole entry): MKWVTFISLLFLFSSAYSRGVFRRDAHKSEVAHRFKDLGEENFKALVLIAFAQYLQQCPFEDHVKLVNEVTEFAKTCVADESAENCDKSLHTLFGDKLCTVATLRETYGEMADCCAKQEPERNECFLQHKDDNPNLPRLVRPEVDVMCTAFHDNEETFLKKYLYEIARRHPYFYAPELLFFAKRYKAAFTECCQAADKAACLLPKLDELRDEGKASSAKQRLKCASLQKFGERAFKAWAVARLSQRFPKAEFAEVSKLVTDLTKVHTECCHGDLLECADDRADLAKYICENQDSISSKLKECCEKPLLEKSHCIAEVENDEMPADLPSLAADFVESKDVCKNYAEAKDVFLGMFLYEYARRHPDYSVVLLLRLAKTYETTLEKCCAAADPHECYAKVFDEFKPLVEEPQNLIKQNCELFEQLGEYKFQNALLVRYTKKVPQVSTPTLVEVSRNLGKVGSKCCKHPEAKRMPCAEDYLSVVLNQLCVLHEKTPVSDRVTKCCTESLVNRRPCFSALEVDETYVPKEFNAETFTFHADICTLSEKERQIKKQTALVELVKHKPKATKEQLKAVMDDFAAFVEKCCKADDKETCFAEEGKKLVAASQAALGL
- EXPERIMENT_NOTES: Binding affinity to human serum albumin by HPLC analysis
- Type: ADME
- ASSAY_CONTEXT: read-out: PB (converted)
RECORDED_METRIC: fraction unbound

O=C(O)CCn1c(=O)oc2cc(Cl)c(Cl)cc21 :: 0.037

a. CCc1cc2oc(=O)n(CCC(=O)O)c2cc1Cl.NC(CO)(CO)CO
b. Cc1ccc([C@@H](C)Oc2cc3onc(CCC(=O)O)c3cc2Cl)nc1.NC(CO)(CO)CO
c. COCCOc1cc2oc(=O)n(CCC(=O)O)c2cc1Cl.NC(CO)(CO)CO
d. NC(CO)(CO)CO.O=C(O)CCn1c(=O)oc2cc(OCC3CC3)c(Cl)cc21
Asked: Rank ascending by fraction unbound. Quick reminder: the answer is the labels in the order asked.
Given back: b, a, d, c

----------
- EXPERIMENT_NOTES: Protein binding in human plasma
- Format: ADME, cell-free
- ASSAY_CONTEXT: read-out: PPB (converted)
RECORDED_METRIC: fraction unbound

// below: answered compounds
C[C@@H](Oc1cc2onc(CCC(=O)O)c2cc1Cl)c1ccc(Cl)cn1.NC(CO)(CO)CO :: 0.002
C[C@@H](Oc1cc2c(cc1Cl)N(CCC(=O)O)C(=O)CO2)c1ccccn1 :: 0.075
C[C@@H](Oc1cc2cnn(CCC(=O)O)c2cc1Cl)c1ccccn1 :: 0.099
COCCOc1cc2oc(=O)n(CCC(=O)O)c2cc1Cl.NC(CO)(CO)CO :: 0.293
C[C@@H](Oc1cc2oc(=O)n(CCC(=O)O)c2cc1Cl)c1cccnn1 :: 0.319
NC(CO)(CO)CO.O=C(O)CCn1c(=O)oc2cc(OCC3CCC3)c(Cl)cc21 :: 0.019
C[C@@H](Oc1cc2oc(=O)n(CCC(=O)O)c2cc1Cl)c1ccccn1.NC(CO)(CO)CO :: 0.119
O=C(O)CCn1c(=O)oc2cc(Cl)c(Cl)cc21 :: 0.018

I. C[C@@H](Oc1cc2onc(CCC(=O)O)c2cc1Cl)c1ccccn1.NC(CO)(CO)CO
II. Cc1ccc([C@@H](C)Oc2cc3onc(CCC(=O)O)c3cc2Cl)nc1.NC(CO)(CO)CO
Asked: Would you mind telling me which has the lower recorded fraction unbound between I and II ? State the label of the item chosen.
Given back: II
